Test system: K-562 leukemia
Assay: NCI-60 one-dose screen, 48 h (100 = growth as untreated, 0 = no growth, -100 = all killed)
Conditions: 10 µM unless noted
The panel holds about 83,000 compounds, 20% with a hit somewhere; the sample as a whole holds those more often.
Here, each record is paired with measured growth data.
# output: bare number, implied unit %

Field: example entries. Status: answers known.
Cc1ccc(S(=O)(=O)N2CCC(C(=O)Nc3ccc(F)cc3F)CC2)cc1 | 91.7
CC(=O)Oc1cccc(OC(C)=O)c1OC(C)=O | 100
O=C1c2ccccc2C(=O)c2c(N=Nc3sc(=O)[nH]c3S)cccc21 | 78.5
CC(Br)C(Br)c1cc2c(cc1Br)OCO2 (stereo unspecified) | 112
O=C(Nc1ccc(F)c(Cl)c1)c1n[nH]c(=O)c2ccccc12 | 99.8

Consider the record given below.
Look up growth: COc1cccc2cc(-c3cc4ccccc4[nH]3)/c(=N/C(=S)Nc3ccccc3)oc12
84.4
